// provenance: PubChem BioAssay

Below, each entry is listed with its recorded growth inhibition.
experiment: S. cerevisiae growth inhibition in restrictive medium, OD615, pilot screen, restrictive growth control, yeast lifespan reduction project (AID 706); details: OD615, 48 h, at 10 µM, stronger effect = higher value;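 also: modified DeaD lifespan yeast strain shifted to restrictive glucose medium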
The source made the active and inactive calls.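 The calls were made as follows: active = growth inhibition above a set limit, 3 SD over mean compound inhibition, in both replicates (cut at about 43% in these data); inconclusive = above the limit in only one replicate; inactive = at or below the limit in both replicates.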

Before answering, review these 5 worked examples.
| compound | growth inhibition |
| --- | --- |
| O=C(Nc1nncs1)c1ccccc1NS(=O)(=O)c1cccs1 | -10.1% (inactive) |
| CCN(CC)S(=O)(=O)c1ccc2c(c1)nc(SCn1nnc3ccccc3c1=O)n2CC | -5.42% (inactive) |
| COc1ccc(OC)c(CNC(=O)CCc2nc(-c3cccs3)no2)c1 | 11.3% (inactive) |
| c1ccc2c(c1)ccc1nnc(-c3ccc4c(c3)OCO4)n12 | 2.03% (inactive) |
| O=C(NCC1COc2ccccc2O1)C1C2C=CC3(CN(Cc4ccccc4Cl)C(=O)C13)O2 (stereo unspecified) | -7.88% (inactive) |

-- ask Which growth inhibition is reported for this compound? `Cc1cccc(N2CCN(C(=O)c3cc4ccccc4oc3=O)CC2)c1C`
-- reply -0.595% (inactive)

-- ask Which measured growth inhibition value corresponds to O=C1CC(c2ccc(S(=O)(=O)NCc3ccccc3)cc2)CN1 (stereo unspecified) ?
-- reply -21% (inactive)

-- ask Look at this compound and give its reported growth inhibition. `COc1ccccc1CNC(=O)c1cnc2sccn2c1=O`
-- reply -12.4% (inactive)

-- ask Form field: reported growth inhibition of `COc1ccccc1-c1nc(-c2ccc(Br)cc2)no1`
-- reply -2.73% (inactive)

-- ask What value of growth inhibition has been reported for the following compound? CC(O)c1cccc(NC(=O)CCC(=O)O)c1 (stereo unspecified)
-- reply -3.43% (inactive)

-- ask Find the recorded growth inhibition belonging to COC(=O)C1=C(N)OC2=C(C(=O)CCC2)C1c1cccs1 (stereo unspecified) and report it.
-- reply -6.3% (inactive)

----------
The reader will find reported viability values listed item by item below.
experiment: reduced viability of SK-BR-3 breast cancer cells – cell-based, 24 h, human, pilot screen (AID 572); details: SK-BR-3 viability, CellTiter-Glo luminescence, at 10 µM, stronger effect = lower value;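 also: compound exposure lasted between 18 and 24 h rather than exactly 24 h; 100% = carrier-treated control wells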
The reply should be a number in %, with the unit left off.

The examples below pair each entry with its known result.
| compound | viability [%] |
| --- | --- |
| CCOC(=O)N1CCN(C(c2ccc(Cl)cc2)c2sc3nc(C)nn3c2O)CC1 (stereo unspecified) | 94 |
| CC1CCCN(C(=O)CN2C(=O)c3ccccc3C2=O)C1 (stereo unspecified) | 93.5 |
| Cc1ccc(-c2nc3cc(NC(=O)C(C)C)ccc3o2)cc1 | 87 |

-- ask What value of viability has been recorded for this entry: CCC(C)NC(=O)c1cc(CC(C)C)on1 (stereo unspecified)
-- reply 84

-- ask // query viability value for entry `CCS(=O)(=O)c1nc2ccccc2n1Cc1ccccc1Cl`
-- reply 101

-- ask Given `Cn1nnc2cc(C(=O)N3CCCCCC3)ccc21` , state its recorded viability.
-- reply 81.5

----------
experiment: RAM signaling pathway blockade in yeast – S. cerevisiae, Pdr1DBD-CYC8 efflux-inhibited sensitized strain, primary screen (AID 1298);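 also: 0% = DMSO untreated cells without growth and 100% = 10 µM 1-NA-PP1 full growth; higher means more yeast growth rescued from 5-FOA killing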; settings: S. cerevisiae cbk1-as DSE1-URA3 strain, 5-FOA growth OD615, 2 d; at 50 µM; stronger effect = higher value
Some compounds, each annotated with its measured RAM network inhibition.
Report only the number, with the unit % understood.

Please review the entries below; each comes with its answer.
| compound | reading_unit | RAM network inhibition |
| --- | --- | --- |
| O=C(c1ccco1)N1CCN(C2=NS(=O)(=O)c3ccccc32)CC1 | % | 6.34 |
| CC(CCc1ccco1)NC(=O)c1cc2c(-c3ccccc3F)nn(C)c2s1 (stereo unspecified) | % | -0.15 |

-- ask Need RAM network inhibition, item `CCOCCn1c(SCC(=O)OCc2ccccc2)nc2c1c(=O)[nH]c(=O)n2C`
-- reply 3.42

-- ask Recorded RAM network inhibition of `CC(C)n1c(=O)[nH]c2ccccc21` , please.
-- reply 2.88

----------
test: MRP1 drug-resistance reversers in H69AR cells – cell-based, doxorubicin co-treatment, pilot screen (AID 601); conditions: H69AR cells + 2 uM doxorubicin, CellTiter-Glo, 72 h; measured here: viability with 2 uM doxorubicin; at 10 µM; stronger effect = lower value
viability strictly under 90% means true (1); at 90% or over means false (0).

Some solved cases for reference:
| compound | assigned_label |
| --- | --- |
| O=C(Nn1cnnc1)C1Cc2ccccc2CN1S(=O)(=O)c1ccc(F)cc1 (stereo unspecified) | false (0) |
| CC1(C)Cc2ccccc2C(N)=C1C#N | true (1) |
| Cc1cc(=O)oc2cc(OCC#N)ccc12 | false (0) |
| c1ccc(-c2nnc(CSc3nncs3)o2)cc1 | false (0) |

Okay, now this compound:
-- ask Hi there! Is viability for `Cc1onc(-c2ccccc2Cl)c1C(=O)Nc1cnn(Cc2ccccc2)c1` below 90%, do you know?
-- reply true (1)

----------
assay: RAM pathway blockade in budding yeast – dse1pr::URA3 reporter, 5-FOA selection, pilot screen (AID 869);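 also: 0% = DMSO wells with no growth and 100% = 10 µM 1-NA-PP1 with full growth; RAM network block rescues cells from 5-FOA so hits raise OD615 growth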; conditions: S. cerevisiae dse1pr::URA3 5-FOA growth, OD615, 2 d; at 10 µM; stronger effect = higher value; strain carries analog-sensitive mutant Cbk1 kinase
observed_property: inhibition (%)
Numbers only here, please. The scale is %.

-- ask Recorded inhibition of `Cc1ccc2oc(=O)c3cnn(CC(=O)NCCC(C)C)c3c2c1` , please.
-- reply 1.22

-- ask Given the compound `CCOc1ccc(NC(=O)c2cnc3scc(C)n3c2=O)cc1` , what is its reported inhibition?
-- reply 2.76

-- ask inhibition lookup needed for CC(C(=O)N1CC2(C)CC1CC(C)(C)C2)N1C(=O)c2ccccc2C1=O (stereo not given) , thanks.
-- reply 0.545

-- ask Given `Cc1ccc(-n2ncc3c(=O)n(CC(=O)NCc4ccco4)cnc32)cc1C` , state its recorded inhibition.
-- reply 2.71

-- ask Entry `CCc1cc2c(=O)c(-c3nc4ccccc4[nH]3)coc2c(CN2CCC(C)CC2)c1O` : reported inhibition = ?
-- reply -0.2

----------
Quick reference for viability increase among some compounds
experiment: doxorubicin toxicity protection in MRP-1 cells – H69AR cells, CellTiter-Glo, duplicate, MRP-1 activator project, pilot screen (AID 807); details: H69AR viability with doxorubicin, CellTiter-Glo luminescence; at 10 µM; stronger effect = higher value;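 also: compound pretreatment 18-22 h then 72 h combined with doxorubicin; 0% = doxorubicin alone and 100% = vehicle without doxorubicin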
Express the result in % but write the number alone.

| compound | reading_unit | viability increase |
| --- | --- | --- |
| O=C(NCCN1CCCCCC1)c1ccc(CS(=O)(=O)c2ccc(Br)cc2)o1 | % | -3.11 |
| N#CCCN1CCN(S(=O)(=O)c2ccc(S(=O)(=O)NC3CCCCC3)cc2)CC1 | % | -0.74 |
| Cc1cccc(C2CC(c3ccccc3)Nc3nc(N)nn32)c1 (configuration not stated) | % | -0.5 |

-- ask Could you tell me which viability increase is on file for COc1cc(OC)c2c(c1)OC(c1ccc(OC)c(OC)c1)C(O)C2=O (configuration not stated) ?
-- reply -1.91

-- ask What value of viability increase has been recorded for this entry: `O=C(CNS(=O)(=O)c1cccs1)Nc1ccc2c(c1)OCCO2`
-- reply -1.78

-- ask Entry `CCOc1ccc2nc(N3CCC(C(=O)N4CCN(C5CCCCC5)CC4)CC3)sc2c1` has what viability increase?
-- reply -3.43

-- ask Give the measured viability increase of `O=C(CCCN1C(=O)CSc2ncccc21)N1CCN(Cc2ccccc2)CC1` .
-- reply -2.06

-- ask Consider the compound COc1ccccc1CNC(=O)C1CCC(CNc2c(N3CCOCC3)c(=O)c2=O)CC1 (configuration not stated) and give its measured viability increase.
-- reply 0.11

-- ask Need viability increase, item CCn1cc(C(=O)NCC2CCCO2)c2cc(OC)c(OC)cc2c1=O (configuration not stated)
-- reply -1.89

-- ask Please give the measured viability increase for this compound: `CCCc1cc(C(=O)Nc2cc(OC)c(Cl)cc2OC)no1`
-- reply -4.41

-- ask What value of viability increase has been recorded for this entry: `O=C(CSc1nc2c(c(=O)n1-c1ccc(F)cc1)SCC2)NCc1ccco1`
-- reply -2.1

-- ask Which viability increase value belongs to `Cc1cc(C)c(OCC(=O)Nc2cccc(NC(=O)c3ccco3)c2)c(Br)c1` ?
-- reply -3.03

-- ask # lookup: viability increase of `CCn1c2ccccc2c2nnc(SCC(=O)c3ccccc3)nc21`
-- reply -2.35

----------
Recorded inhibition values for a group of compounds are listed next.
experiment: RAM pathway blockade in budding yeast – dse1pr::URA3 reporter, 5-FOA selection, pilot screen (AID 869);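 also: 0% = DMSO wells with no growth and 100% = 10 µM 1-NA-PP1 with full growth; RAM network block rescues cells from 5-FOA so hits raise OD615 growth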; conditions: S. cerevisiae dse1pr::URA3 5-FOA growth, OD615, 2 d; at 10 µM; stronger effect = higher value; strain carries analog-sensitive mutant Cbk1 kinase
Value expressed in %; do not type the unit.

# annotated cases, reported inhibition shown
| smiles_entry | inhibition / % |
| --- | --- |
| O=C(CCCCC(=O)N1CCN(c2ccccc2)CC1)N1CCN(c2ccccc2)CC1 | 1.74 |
| CCOc1ccc(N(CC(=O)Nc2ccc(C)c(C)c2)S(=O)(=O)c2c(C)noc2C)cc1 | 1.85 |

Attention now shifts to the item below.
-- ask Can you look up the measured inhibition of `Nn1c(Cc2ccccc2F)nnc1SCC(=O)N1CC(=O)Nc2ccccc21` for me?
-- reply 2.1
